Target: T1, recombinant human activated Factor VII (FVIIa) (human, UniProt P08709 61-212; P08709 213-466, ten glutamate residues of the Gla domain may be gamma-carboxylated)
T1 construct: chains tethered by a disulfide bond; also called Factor VIIa; rFVIIa
T1 sequence 1: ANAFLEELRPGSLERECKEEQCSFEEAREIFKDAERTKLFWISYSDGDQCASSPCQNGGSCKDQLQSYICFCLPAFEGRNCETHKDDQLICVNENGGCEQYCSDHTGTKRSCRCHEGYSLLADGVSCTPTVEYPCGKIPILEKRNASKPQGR
T1 sequence 2: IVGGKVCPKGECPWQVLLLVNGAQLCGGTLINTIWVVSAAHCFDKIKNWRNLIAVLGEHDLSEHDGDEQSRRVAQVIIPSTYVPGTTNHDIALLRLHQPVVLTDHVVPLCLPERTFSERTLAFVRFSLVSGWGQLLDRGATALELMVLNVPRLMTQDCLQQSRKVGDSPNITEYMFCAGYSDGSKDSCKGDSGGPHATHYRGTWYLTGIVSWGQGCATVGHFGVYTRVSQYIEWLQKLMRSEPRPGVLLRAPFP
Experiment: BLI (Fortebio)
Items are presented alongside their recorded Kd.
Remember to put the unit after the number in your answer.

{"binder": "VH SEQ ID NO 602 / VL SEQ ID NO 358 (antibody, IgG4, V domains shown, humanized 11F2; IgG4 S228P/kappa) VH: QVQLQESGPGLVKPSQTLSLTCTVSGGSISSDSAWSWIRQPPGKGLEWIGYIQYSGSTNYNPSLKSRVTISVDTSKNQFSLKLSSVTAADTAVYYCARSVNYYGNSFAVGYWGQGTLVTVSS VL: EIVLTQSPATLSLSPGERATLSCRASQGISDYLHWYQQKPGQAPRLLIKYTSQPATGIPARFSGSGSGTDFTLTISSLEPEDFAVYYCQNGHSFPLTFGQGTKLEIK", "observed": "9.2 nM"}

Now for another entry.
So for VH SEQ ID NO 546 / VL SEQ ID NO 478 (antibody, IgG4, V domains shown, humanized 11F2; IgG4 S228P/kappa) VH: QVQLQESGPGLVEPSQTLSLTCTVSGYSITSDSAWSWIRQPPGKKLEWIGYIQYSGSTNYNPSLKSRVTISRDTSKNQFSLKLSSVTAADTAVYYCARSVNYYGNSFAVGYWGQGTSVTVSS VL: EIVLTQSPATLSLSPGERATLSCRASQGVSDYLHWYQQKPGQAPRLLIKYASQPATGIPARFSGSGSGTDFTLTISSLEPEDFAVYYCQQGHSFPLTFGQGTKLEIK , the logged Kd turned out to be 2 nM
